Test system: aspartate aminotransferase (AST)
Assay: Hepatoprotection study, serum AST, alcohol 5 days
Assay type: in vivo, Wistar albino rats
Settings: Pro: Protection (%), rats, alcohol 4 gm/kg/day p.o.
Where a SMILES comes first, the peptide text is derived from it.
Consider the reported AST Pro of an entry and match it to a band in interval 1 (below 6%), interval 2 (6% to below 20%), interval 3 (20% or more)

Recorded results for 3 molecules are shown here.
CC1(C(=O)O)CCC2(C)CCC3(C)C(=CC(=O)C4C5(C)CCC(OC6OC(C(=O)O)C(O)C(O)C6OC6OC(C(=O)O)C(O)C(O)C6O)C(C)(C)C5CCC43C)C2C1 (stereo not drawn) [0.1 GA, 18β-GA]	interval 2
C[C@H](N)C(=O)N[C@@H](CCC(N)=O)C(=O)O [1 DP, L-Ala-L-Gln] (H-Ala-Gln-OH)	interval 2
C[C@H](N)C(=O)N[C@@H](CCC(N)=O)C(=O)O [2.0 DP, L-Ala-L-Gln] (H-Ala-Gln-OH)	interval 3

Request: Band assignment needed for C/C=C/C=C/C(=O)[O-].[K+] [0.1 KS, Potassium Sorbate] please.
Result: interval 1

Request: Band assignment needed for C[C@H](N)C(=O)N[C@@H](CCC(N)=O)C(=O)O [0.75 DP, L-Ala-L-Gln] (H-Ala-Gln-OH) please.
Result: interval 2

Request: Band assignment needed for CC1(C(=O)O)CCC2(C)CCC3(C)C(=CC(=O)C4C5(C)CCC(OC6OC(C(=O)O)C(O)C(O)C6OC6OC(C(=O)O)C(O)C(O)C6O)C(C)(C)C5CCC43C)C2C1 (stereo not drawn) [0.04 GA, 18β-GA] please.
Result: interval 1

Request: Band assignment needed for OC[C@@H](O)[C@@H](O)[C@H](O)[C@H](O)CO [0.5 Man, D-Mannitol] please.
Result: interval 1

Request: Band assignment needed for CC1(C(=O)O)CCC2(C)CCC3(C)C(=CC(=O)C4C5(C)CCC(OC6OC(C(=O)O)C(O)C(O)C6OC6OC(C(=O)O)C(O)C(O)C6O)C(C)(C)C5CCC43C)C2C1 (stereo not drawn) [0.04a GA, 18α-GA] please.
Result: interval 1

Request: Band assignment needed for OC[C@@H](O)[C@@H](O)[C@H](O)[C@H](O)CO [1.2 Man, D-Mannitol] please.
Result: interval 3

Request: Band assignment needed for C[C@H](N)C(=O)N[C@@H](CCC(N)=O)C(=O)O [3 DP, L-Ala-L-Gln] (H-Ala-Gln-OH) please.
Result: interval 3

Request: Band assignment needed for C[C@H](N)C(=O)N[C@@H](CCC(N)=O)C(=O)O [1.25 DP, L-Ala-L-Gln] (H-Ala-Gln-OH) please.
Result: interval 3

Request: Band assignment needed for OC[C@@H](O)[C@@H](O)[C@H](O)[C@H](O)CO [2.5 Man, D-Mannitol] please.
Result: interval 3

----------
Test system: Monocyte chemoattractant protein-1 (MCP-1) from brain homogenate
Test: CNS study, MCP-1 from brain homogenate, alcohol 5 days
Assay type: in vivo, Wistar albino rats
Conditions: Pro: Protection (%), rats, alcohol 5 Day
Where a SMILES comes first, the peptide text is derived from it.
metric name: Brain MCP-1 Pro (%)
// note: answer is a bare numeric in %

Worked set:
C/C=C/C=C/C(=O)[O-].[K+] [0.1 KS, Potassium Sorbate]	0
OC[C@@H](O)[C@@H](O)[C@H](O)[C@H](O)CO [1.2 Man, D-Mannitol]	14.28
OC[C@@H](O)[C@@H](O)[C@H](O)[C@H](O)CO [0.5 Man, D-Mannitol]	2.75
CC1(C(=O)O)CCC2(C)CCC3(C)C(=CC(=O)C4C5(C)CCC(OC6OC(C(=O)O)C(O)C(O)C6OC6OC(C(=O)O)C(O)C(O)C6O)C(C)(C)C5CCC43C)C2C1 (stereo not drawn) [0.3 GA, 18β-GA]	21.36
C[C@H](N)C(=O)N[C@@H](CCC(N)=O)C(=O)O [2.0 DP, L-Ala-L-Gln] (H-Ala-Gln-OH)	24.36
C[C@H](N)C(=O)N[C@@H](CCC(N)=O)C(=O)O [0.75 DP, L-Ala-L-Gln] (H-Ala-Gln-OH)	9.63
CC1(C(=O)O)CCC2(C)CCC3(C)C(=CC(=O)C4C5(C)CCC(OC6OC(C(=O)O)C(O)C(O)C6OC6OC(C(=O)O)C(O)C(O)C6O)C(C)(C)C5CCC43C)C2C1 (stereo not drawn) [0.04a GA, 18α-GA]	0.1
CC1(C(=O)O)CCC2(C)CCC3(C)C(=CC(=O)C4C5(C)CCC(OC6OC(C(=O)O)C(O)C(O)C6OC6OC(C(=O)O)C(O)C(O)C6O)C(C)(C)C5CCC43C)C2C1 (stereo not drawn) [0.1 GA, 18β-GA]	3.58

Request: Could you tell me which Brain MCP-1 Pro is on file for OC[C@@H](O)[C@@H](O)[C@H](O)[C@H](O)CO [2.5 Man, D-Mannitol] ?
Result: 24.65

Request: Could you tell me which Brain MCP-1 Pro is on file for CC1(C(=O)O)CCC2(C)CCC3(C)C(=CC(=O)C4C5(C)CCC(OC6OC(C(=O)O)C(O)C(O)C6OC6OC(C(=O)O)C(O)C(O)C6O)C(C)(C)C5CCC43C)C2C1 (stereo not drawn) [0.04 GA, 18β-GA] ?
Result: 1.58

Request: Could you tell me which Brain MCP-1 Pro is on file for C[C@H](N)C(=O)N[C@@H](CCC(N)=O)C(=O)O [0.5 DP, L-Ala-L-Gln] (H-Ala-Gln-OH) ?
Result: 5.12

----------
Test system: Interferon gamma (IFN-γ)
Assay: Hangover study, serum IFN-gamma, alcohol 1 day
Format: in vivo, Wistar albino rats
Parameters: concentration or dose not given beside the values
Conditions: 1 Day alcohol
Where a SMILES comes first, the peptide text is derived from it.
metric name: IFN-Gamma Pro (Protection) (%)
// note: answer is a bare numeric in %

Worked set:
CC1(C(=O)O)CCC2(C)CCC3(C)C(=CC(=O)C4C5(C)CCC(OC6OC(C(=O)O)C(O)C(O)C6OC6OC(C(=O)O)C(O)C(O)C6O)C(C)(C)C5CCC43C)C2C1 (stereo not drawn) [0.04a GA, 18α-GA]	0.1
C[C@H](N)C(=O)N[C@@H](CCC(N)=O)C(=O)O [1 DP, L-Ala-L-Gln] (H-Ala-Gln-OH)	12.25

Request: Could you tell me which IFN-Gamma Pro (Protection) is on file for C[C@H](N)C(=O)N[C@@H](CCC(N)=O)C(=O)O [0.75 DP, L-Ala-L-Gln] (H-Ala-Gln-OH) ?
Result: 6.38

----------
Test system: Interferon gamma (IFN-γ)
Assay: Hangover study, serum IFN-gamma, alcohol 1 day
Assay type: in vivo, Wistar albino rats
Parameters: concentration or dose not given beside the values
Conditions: 1 Day alcohol
Where a SMILES comes first, the peptide text is derived from it.
Parameter IFN-Gamma Pro (Protection): see the listing below.
// note: answer is a bare numeric in %

Worked set:
OC[C@@H](O)[C@@H](O)[C@H](O)[C@H](O)CO [0.5 Man, D-Mannitol]	3.51
C[C@H](N)C(=O)N[C@@H](CCC(N)=O)C(=O)O [3 DP, L-Ala-L-Gln] (H-Ala-Gln-OH)	31.08
OC[C@@H](O)[C@@H](O)[C@H](O)[C@H](O)CO [1.2 Man, D-Mannitol]	7.79
C[C@H](N)C(=O)N[C@@H](CCC(N)=O)C(=O)O [1.25 DP, L-Ala-L-Gln] (H-Ala-Gln-OH)	10.44

// next item, IFN-Gamma Pro (Protection) requested
Request: Could you tell me which IFN-Gamma Pro (Protection) is on file for CC1(C(=O)O)CCC2(C)CCC3(C)C(=CC(=O)C4C5(C)CCC(OC6OC(C(=O)O)C(O)C(O)C6OC6OC(C(=O)O)C(O)C(O)C6O)C(C)(C)C5CCC43C)C2C1 (stereo not drawn) [0.04 GA, 18β-GA] ?
Result: 1.25

----------
Parameter Brain IL12 Pro: see the listing below.
Tested on: interleukin-12 (IL-12) from brain homogenate
Assay: CNS study, IL-12 from brain homogenate, alcohol 5 days
Format: in vivo, Wistar albino rats
Conditions: Pro: Protection (%), rats, alcohol 5 Day
Where a SMILES comes first, the peptide text is derived from it.
// note: answer is a bare numeric in %

Worked set:
C[C@H](N)C(=O)N[C@@H](CCC(N)=O)C(=O)O [0.5 DP, L-Ala-L-Gln] (H-Ala-Gln-OH)	2.35
C[C@H](N)C(=O)N[C@@H](CCC(N)=O)C(=O)O [0.75 DP, L-Ala-L-Gln] (H-Ala-Gln-OH)	7.01
C[C@H](N)C(=O)N[C@@H](CCC(N)=O)C(=O)O [3 DP, L-Ala-L-Gln] (H-Ala-Gln-OH)	27.57

// next item, Brain IL12 Pro requested
Request: Provide value of Brain IL12 Pro for this record tested with interleukin-12 (IL-12) from brain homogenate: CC1(C(=O)O)CCC2(C)CCC3(C)C(=CC(=O)C4C5(C)CCC(OC6OC(C(=O)O)C(O)C(O)C6OC6OC(C(=O)O)C(O)C(O)C6O)C(C)(C)C5CCC43C)C2C1 (stereo not drawn) [0.04 GA, 18β-GA]
Result: 1.28
